System: 922993-354-T-J3-PDC complex spheroids, viability;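 further: spheroids exposed to compounds for seven days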
measurement notes: Anticancer human tumor 922993-354-T-J3-PDC patient-derived endometrial carcinoma cell line growth inhibition [GQUAD]
condition: second compound 0.0316 µM; first compound 0.316 µM; stronger effect = lower value
The label Satisfied is reserved for viability, T/C strictly under 50%; Not satisfied covers values equal to or above it.

{"molecule": "CC1COCCN1c1cc(C2(O)CC3CCC(C2)O3)c2cnn(-c3ccn[nH]3)c2n1 (stereo unspecified) + Cc1cnc(CNC(=O)c2c(=O)c3ccc(N4CCCN(C)CC4)nc3n3c2sc2ccccc23)cn1", "measured target": "922993-354-T-J3-PDC complex spheroids, viability", "assigned class": "Satisfied"}
{"molecule": "COc1ccc([C@@H](O)c2cc(-c3ncnc4cc(N5CCOCC5)ccc34)c(F)cc2Cl)nn1 + Cc1[nH]c2ccc(F)cc2c1-c1nc2c3cccnc3c3ncccc3c2[nH]1", "measured target": "922993-354-T-J3-PDC complex spheroids, viability", "assigned class": "Not satisfied"}
{"molecule": "CC[C@@]1(O)C(=O)OCc2c1cc1n(c2=O)Cc2cc3c(CN(C)C)c(O)ccc3nc2-1 + Cc1cnc(CNC(=O)c2c(=O)c3ccc(N4CCCN(C)CC4)nc3n3c2sc2ccccc23)cn1", "measured target": "922993-354-T-J3-PDC complex spheroids, viability", "assigned class": "Not satisfied"}
{"molecule": "COc1cc(C2c3cc4c(cc3C(OC3OC5COC(C)OC5C(O)C3O)C3COC(=O)C23)OCO4)cc(OC)c1O (stereo unspecified) + Cc1cnc(CNC(=O)c2c(=O)c3ccc(N4CCCN(C)CC4)nc3n3c2sc2ccccc23)cn1", "measured target": "922993-354-T-J3-PDC complex spheroids, viability", "assigned class": "Not satisfied"}
{"molecule": "O=C(NO)c1cnc(N2CCN(S(=O)(=O)c3ccc4ccccc4c3)CC2)nc1 + Cc1[nH]c2ccc(F)cc2c1-c1nc2c3cccnc3c3ncccc3c2[nH]1", "measured target": "922993-354-T-J3-PDC complex spheroids, viability", "assigned class": "Not satisfied"}

Is it true that viability, T/C reported for Nc1ccn(C2OC(CO)C(O)C2(F)F)c(=O)n1 (stereo unspecified) + Cc1[nH]c2ccc(F)cc2c1-c1nc2c3cccnc3c3ncccc3c2[nH]1 is less than 50%?
Satisfied

Take the molecule CC1COCCN1c1cc(-c2ccnn2C)c2ccnc(-c3ccn[nH]3)c2n1 (stereo unspecified) + Cc1cnc(CNC(=O)c2c(=O)c3ccc(N4CCCN(C)CC4)nc3n3c2sc2ccccc23)cn1 and say whether its viability, T/C is less than 50%.
Satisfied

is_below(viability, T/C, 50%) for CC(=O)O[C@H]1C(=O)[C@@]2(C)[C@H]([C@H](OC(=O)c3ccccc3)[C@]3(O)C[C@H](OC(=O)[C@H](O)[C@@H](NC(=O)c4ccccc4)c4ccccc4)C(C)=C1C3(C)C)[C@]1(OC(C)=O)CO[C@@H]1C[C@@H]2O + Cc1cnc(CNC(=O)c2c(=O)c3ccc(N4CCCN(C)CC4)nc3n3c2sc2ccccc23)cn1 ?
Not satisfied

Lab log: compare recorded viability, T/C with 50%; is it strictly lower for C=CCn1c(=O)c2cnc(Nc3ccc(N4CCN(C)CC4)cc3)nc2n1-c1cccc(C(C)(C)O)n1 + Cc1[nH]c2ccc(F)cc2c1-c1nc2c3cccnc3c3ncccc3c2[nH]1 ?
Not satisfied

Consider Nc1ccn(C2OC(CO)C(O)C2(F)F)c(=O)n1 (stereo unspecified) + Cc1cnc(CNC(=O)c2c(=O)c3ccc(N4CCCN(C)CC4)nc3n3c2sc2ccccc23)cn1 . Does its viability, T/C lie strictly below 50%?
Satisfied

Origin of the recorded values: PubChem BioAssay AID2060489
